# testTarget: mouse SOD1 expressed in mouse neuroblastoma cells (MNA) (mouse, UniProt P08228 2-154)
# experimentalDetails: IP from mouse neuroblastoma (MNA) cell lysate, immunoblot rabbit anti-SOD1

binder	binding result
114-41 (antibody, V domains shown, Human IgG kappa monoclonal from HuMab mouse hybridoma; Conformation-dependent antibody) VH: QVQLVQSGAEVKTPGASVKVSCKASGYTFTSFGISWVRQAPGQGLEWMGWISVYNDYTNYAQKFQGRVTMTTDTSTSTAYMELRSLRSDDTAMYYCARKRGGDMDYWGQGTLVTVSS VL: DIQMTQSPSSVSASVGDRVTITCRASQDISSWLAWYQHKPGKAPKLLIYLASSLQSGVPSRFSGSGSGTDFTLTISSLQPEDFATYYCQQANSFPWTFGQGTKVEIK	no binding
306-155 (antibody, V domains shown, Human IgG kappa monoclonal from HuMab mouse hybridoma; Conformation-dependent antibody) VH: EVQLVQSGAEVKKPGESLKISCKGSGYSFTSYWIGWVRQMPGKGLEWMGIIYPGDSDTRYSPSFQGQVTISADKSISTAYLQWSSLKASDTAMYYCARQGSGWYGNYFDYWGQGTLVTVSS VL: EIVLTQSPGTLSLSPGERATLSCRASQSFSRGYLAWYQQKPGQAPRLLIYGASSRVTGIPDRFSGSGSGTDFTLTISRLEPEDFAVYYCQQYDSSPYTFGQGTKLEIK	no binding
591-37 (antibody, V domains shown, Human IgG kappa monoclonal from HuMab mouse hybridoma) VH: EVQLVQSGGGLVHPGGSLRLSCAGSGFTFSRYALHWVRQAPGKGLEWVSAIGIGGGTFYADSVKGRFTISRDNAKNSLYLQMNSLRAEDMAVYYCARDTYYDFFDAFDIWGQGTMVTVSS VL: DIQMTQSPSSLSASVGDRVTITCRASQGISSWLAWYQQKPEKAPKSLIYAASSLQSGVPSRFSGSGSGTDFTLTISSLQPEDFATYYCQQYDSYPLTFGGGTKVEIK	no binding
